Organism: Rattus norvegicus
experiment: DrugMatrix - Regimen: Daily Repeat
Format: toxicity, organism-based, Sprague-Dawley
Parameters: regimen Daily Repeat, gender Male, age 6-8 weeks
conditionInfo: in vivo, po, 0 mg/kg, […], tissue Blood, route oral GAVAGE, dose level Control, time 14 day, vehicle 100 % SALINE
recordedMetric: ABSOLUTE EOSINOPHIL (cells/µL)
Report as a plain number; the unit cells/µL is understood.

// returns reported ABSOLUTE EOSINOPHIL for input Nc1ncnc2c1ncn2[C@@H]1O[C@H](CO)[C@@H](O)[C@H]1F [2'-BETA-FLUORO-2',3'-DEOXYADENOSINE]
80

###

Species on record: Rattus norvegicus
experiment: DrugMatrix - Regimen: Daily Repeat
Assay type: toxicity, organism-based, Sprague-Dawley
Set-up: regimen Daily Repeat, gender Male, age 6-8 weeks
conditionInfo: in vivo, po, 0 mg/kg, 72 h, tissue Plasma, route oral GAVAGE, dose level Control, time 3 day, […]
recordedMetric: CREATINE PHOSPHOKINASE (u/L)
Report as a plain number; the unit u/L is understood.

Take a look at these entries with their results.
{"molecule": "CC(C)(C)NC(=O)[C@H]1CC[C@H]2[C@@H]3CC[C@H]4NC(=O)C=C[C@]4(C)[C@H]3CC[C@]12C [FINASTERIDE]", "unit": "u/L", "CREATINE PHOSPHOKINASE": 277}
{"molecule": "COc1cc(N)c(Cl)cc1C(=O)NC1CCN(CCCOc2ccc(F)cc2)CC1OC (centres undefined) [CISAPRIDE]", "unit": "u/L", "CREATINE PHOSPHOKINASE": 284.33}
{"molecule": "CO[C@H]1/C=C/O[C@@]2(C)Oc3c(C)c(O)c4c(O)c(c(/C=N/N5CCN(C6CCCC6)CC5)c(O)c4c3C2=O)NC(=O)/C(C)=C\\C=C\\[C@H](C)[C@H](O)[C@@H](C)[C@@H](O)[C@@H](C)[C@H](OC(C)=O)[C@@H]1C [RIFAPENTINE]", "unit": "u/L", "CREATINE PHOSPHOKINASE": 271.83}

// returns reported CREATINE PHOSPHOKINASE for input Clc1ccc(COC(Cn2ccnc2)c2ccc(Cl)cc2Cl)cc1 (centres undefined) [ECONAZOLE]
279.67

###

Species: Rattus norvegicus
experiment: DrugMatrix - Regimen: Daily Repeat
Format: toxicity, organism-based, Sprague-Dawley
Parameters: regimen Daily Repeat, gender Male, age 6-8 weeks
conditionInfo: in vivo, po, 50 mg/kg, 72 h, tissue Plasma, route oral GAVAGE, dose level Low, time 3 day, vehicle .5 % CMC
recordedMetric: PHOSPHORUS (mg/dL)
Report as a plain number; the unit mg/dL is understood.

Take a look at these entries with their results.
{"compound": "CCN1CCC[C@H]1CNC(=O)c1cc(S(N)(=O)=O)ccc1OC [LEVOSULPIRIDE]", "PHOSPHORUS / mg/dL": 11.53}
{"compound": "CN(C)[C@@H]1C(O)=C(C(N)=O)C(=O)[C@@]2(O)C(O)=C3C(=O)c4c(O)ccc(Cl)c4[C@@](C)(O)[C@H]3C[C@@H]12 [CHLORTETRACYCLINE]", "PHOSPHORUS / mg/dL": 12.13}

// returns reported PHOSPHORUS for input Cc1cccc(C)c1OCC(C)N (centres undefined) [MEXILETINE]
13.23

// returns reported PHOSPHORUS for input NC1CCN(c2nc3c(cc2F)c(=O)c(C(=O)O)cn3-c2ccc(F)cc2F)C1 (centres undefined) [TOSUFLOXACIN]
10.7
